Give measured nuclear count per well for each item. Keep answers brief.
# Tested on: HeLa;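 note: Hoechst-stained nuclei counted by automated confocal imaging of four fields per well in 384-well plates, with the robust Z-score based on the per-plate DMSO median and robust SD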
# method description: nuclear count per well, robust Z-score vs DMSO; higher = more cells (less toxicity)
# applied conditions: 10 µM; 6 h
Lab note: jot down the number only; don't add units.

**Q:** Consider the compound Clc1ccc2nsnc2c1NC1=NCCN1 and give its recorded nuclear count per well.
**A:** 0.891

**Q:** Consider the compound CC(C)/N=c1\cc2n(-c3ccc(Cl)cc3)c3ccccc3nc-2cc1Nc1ccc(Cl)cc1 [Clofazimine] and give its recorded nuclear count per well.
**A:** -0.182

**Q:** Consider the compound Cn1cnc([N+](=O)[O-])c1Sc1ncnc2[nH]cnc12 [Azathioprine] and give its recorded nuclear count per well.
**A:** 0.686

**Q:** Consider the compound O=C1O[C@H]([C@@H](O)CO)C(O)=C1O [Ascorbic acid] and give its recorded nuclear count per well.
**A:** -0.378

**Q:** Consider the compound CCc1cccc2c3c([nH]c12)C(CC)(CC(=O)O)OCC3 (stereo unspecified) [Etodolac] and give its recorded nuclear count per well.
**A:** -1.07

**Q:** Consider the compound N=C(N)NC(=O)Cc1c(Cl)cccc1Cl and give its recorded nuclear count per well.
**A:** 0.22

Reference source: the supplement of paper PMC9844399
